Quick reference: solubility at 24 h of the listed items.
- ASSAY EXPLANATION: Aqueous solubility of the compound in phosphate buffer at pH 7.4 after 24 hrs by HPLC analysis
- Assay type: physicochemical

CHEMICAL SMILES	READOUT UNIT	CENSORING SIGN	solubility at 24 h
CCCS(=O)(=O)Nc1ccc(Cl)c(C(=O)Nc2cnc3[nH]ncc3c2)c1F	µg/mL	=	48
CCCS(=O)(=O)Nc1ccc(F)c(C(=O)Nc2cnc3[nH]nc(OC)c3c2)c1F	µg/mL	=	9
CCCS(=O)(=O)Nc1ccc(F)c(C(=O)Nc2cnc3[nH]ncc3c2)c1F	µg/mL	=	150
CCCS(=O)(=O)Nc1ccc(F)c(C(=O)Nc2cnc3[nH]ccc3c2)c1F	µg/mL	=	4
CCCS(=O)(=O)Nc1ccc(Cl)c(C(=O)Nc2cnc3[nH]nc(OC)c3c2)c1F	µg/mL	=	2
CCCS(=O)(=O)Nc1ccc(F)c(C(=O)Nc2cnc3[nH]nc(N(C)C)c3c2)c1F	µg/mL	=	450
CCCS(=O)(=O)Nc1ccc(F)c(C(=O)Nc2cnc3[nH]cc(Br)c3c2)c1F	µg/mL	<	1
CCCS(=O)(=O)Nc1ccc(F)c(C(=O)Nc2cnc3[nH]nc(C)c3c2)c1F	µg/mL	=	740
CCCS(=O)(=O)Nc1ccc(F)c(C(=O)Nc2cnc3[nH]nc(Br)c3c2)c1F	µg/mL	=	3

====

- ASSAY EXPLANATION: Aqueous solubility of the compound in phosphate buffer at pH 6.5 after 24 hrs by HPLC analysis
- Format: physicochemical

CHEMICAL SMILES	solubility at 24 h
CCCS(=O)(=O)Nc1ccc(Cl)c(C(=O)Nc2cnc3[nH]nc(OC)c3c2)c1F	< 1 µg/mL
CCCS(=O)(=O)Nc1ccc(Cl)c(C(=O)Nc2cnc3[nH]ncc3c2)c1F	15 µg/mL
CCCS(=O)(=O)Nc1ccc(F)c(C(=O)Nc2cnc3[nH]nc(OC)c3c2)c1F	4 µg/mL
CCCS(=O)(=O)Nc1ccc(F)c(C(=O)Nc2cnc3[nH]ccc3c2)c1F	1 µg/mL
CCCS(=O)(=O)Nc1ccc(F)c(C(=O)Nc2cnc3[nH]ncc3c2)c1F	80 µg/mL

====

Reported IC50 values follow for various molecules
- MEASURED TARGET: Serine/threonine-protein kinase B-raf (Homo sapiens, UniProt P15056, V600E)
- Sequence (P15056 2-766 V600E limits assumed): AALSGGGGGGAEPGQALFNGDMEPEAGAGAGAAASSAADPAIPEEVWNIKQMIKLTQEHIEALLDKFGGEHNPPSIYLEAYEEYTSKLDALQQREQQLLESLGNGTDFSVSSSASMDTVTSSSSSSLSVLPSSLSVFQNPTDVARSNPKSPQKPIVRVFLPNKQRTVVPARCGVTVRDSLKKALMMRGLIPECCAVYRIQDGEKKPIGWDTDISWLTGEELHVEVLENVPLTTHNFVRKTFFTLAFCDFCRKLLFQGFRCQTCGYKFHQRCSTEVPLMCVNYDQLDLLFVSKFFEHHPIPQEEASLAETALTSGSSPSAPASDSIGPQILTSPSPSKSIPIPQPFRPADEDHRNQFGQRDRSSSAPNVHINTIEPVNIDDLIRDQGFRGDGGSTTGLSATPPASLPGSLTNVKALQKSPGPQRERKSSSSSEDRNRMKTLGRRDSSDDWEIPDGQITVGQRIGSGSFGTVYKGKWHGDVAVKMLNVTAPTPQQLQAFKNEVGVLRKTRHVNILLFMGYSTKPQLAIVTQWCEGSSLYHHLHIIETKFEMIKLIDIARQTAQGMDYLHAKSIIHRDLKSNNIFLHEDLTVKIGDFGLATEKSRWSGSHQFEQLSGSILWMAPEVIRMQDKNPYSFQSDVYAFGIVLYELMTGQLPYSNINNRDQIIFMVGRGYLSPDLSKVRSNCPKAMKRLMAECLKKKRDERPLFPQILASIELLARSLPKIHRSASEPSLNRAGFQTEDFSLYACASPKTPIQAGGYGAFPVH
- ASSAY EXPLANATION: Inhibition of B-Raf V600E mutant-mediated Erk phosphorylation in human A375 cells after 1 hr by fluorescence analysis
- Type: cell-based, A-375

CHEMICAL SMILES	IC50
CCCS(=O)(=O)Nc1ccc(Cl)c(C(=O)Nc2cnc3[nH]nc(OC)c3c2)c1F	0.24 µM
CCCS(=O)(=O)Nc1ccc(F)c(C(=O)Nc2cnc3[nH]ccc3c2)c1F	0.29 µM
CCCS(=O)(=O)Nc1ccc(F)c(C(=O)Nc2cnc3[nH]nc(Br)c3c2)c1F	0.26 µM

====

- ASSAY EXPLANATION: Clearance in CD-1 mouse
- Assay type: ADME, organism-based
- STATED CONDITIONS: in vivo
Would you please tag the item 1 when its clearance is 2 mL/min/kg or above, and 0 when it is below?

CHEMICAL SMILES	CATEGORY LABEL
CCCS(=O)(=O)Nc1ccc(F)c(C(=O)Nc2cnc3[nH]ncc3c2)c1F	1
CCCS(=O)(=O)Nc1ccc(F)c(C(=O)Nc2cnc3[nH]cc(Br)c3c2)c1F	1
CCCS(=O)(=O)Nc1ccc(F)c(C(=O)Nc2cnc3[nH]ccc3c2)c1F	0
CCCS(=O)(=O)Nc1ccc(Cl)c(C(=O)Nc2cnc3[nH]nc(OC)c3c2)c1F	0
CCCS(=O)(=O)Nc1ccc(Cl)c(C(=O)Nc2cnc3[nH]ncc3c2)c1F	1

====

- ASSAY EXPLANATION: Oral bioavailability in CD-1 mouse at 30 mg/kg as a solution in 40% PEG400/10%ethanol/50% water
- Assay type: ADME, organism-based
- STATED CONDITIONS: in vivo
PARAMETER: bioavailability (%)

CHEMICAL SMILES	MEAS VALUE
CCCS(=O)(=O)Nc1ccc(F)c(C(=O)Nc2cnc3[nH]ncc3c2)c1F	100
CCCS(=O)(=O)Nc1ccc(Cl)c(C(=O)Nc2cnc3[nH]ncc3c2)c1F	67
CCCS(=O)(=O)Nc1ccc(F)c(C(=O)Nc2cnc3[nH]ccc3c2)c1F	76
CCCS(=O)(=O)Nc1ccc(F)c(C(=O)Nc2cnc3[nH]nc(OC)c3c2)c1F	48
CCCS(=O)(=O)Nc1ccc(F)c(C(=O)Nc2cnc3[nH]cc(Br)c3c2)c1F	71
CCCS(=O)(=O)Nc1ccc(Cl)c(C(=O)Nc2cnc3[nH]nc(OC)c3c2)c1F	53

====

- ASSAY EXPLANATION: Oral bioavailability in CD-1 mouse at 10 mg/kg as formulation of 25% SDD
- Format: ADME, organism-based
- STATED CONDITIONS: in vivo

CHEMICAL SMILES	bioavailability [%]
CCCS(=O)(=O)Nc1ccc(Cl)c(C(=O)Nc2cnc3[nH]nc(OC)c3c2)c1F	53

====

- ASSAY EXPLANATION: Aqueous solubility of the compound in phosphate buffer at pH 6.5 after 24 hrs by HPLC analysis
- Format: physicochemical

CHEMICAL SMILES	READOUT UNIT	CENSORING SIGN	solubility at 24 h
CCCS(=O)(=O)Nc1ccc(F)c(C(=O)Nc2cnc3[nH]cc(Br)c3c2)c1F	µg/mL	<	1
CCCS(=O)(=O)Nc1ccc(F)c(C(=O)Nc2cnc3[nH]nc(N(C)C)c3c2)c1F	µg/mL	=	290
CCCS(=O)(=O)Nc1ccc(F)c(C(=O)Nc2cnc3[nH]nc(C)c3c2)c1F	µg/mL	=	380
CCCS(=O)(=O)Nc1ccc(F)c(C(=O)Nc2cnc3[nH]nc(Br)c3c2)c1F	µg/mL	=	1

====

- MEASURED TARGET: Serine/threonine-protein kinase B-raf (Homo sapiens, UniProt P15056, V600E)
- ASSAY EXPLANATION: Inhibition of B-Raf V600E mutant-mediated Erk phosphorylation in human A375 cells after 1 hr by fluorescence analysis
- Assay type: cell-based, A-375
Measured IC50, listed per entry for reference.

CHEMICAL SMILES	IC50
CCCS(=O)(=O)Nc1ccc(Cl)c(C(=O)Nc2cnc3[nH]ncc3c2)c1F	0.56 µM
CCCS(=O)(=O)Nc1ccc(F)c(C(=O)Nc2cnc(N)c(Br)c2)c1F	1.2 µM
CCCS(=O)(=O)Nc1ccc(F)c(C(=O)Nc2cnc3[nH]cc(Br)c3c2)c1F	0.19 µM
CCCS(=O)(=O)Nc1ccc(F)c(C(=O)Nc2ccc(N)nc2)c1F	> 3 µM
CCCS(=O)(=O)Nc1ccc(F)c(C(=O)Nc2cccnc2)c1F	> 3 µM
CCCS(=O)(=O)Nc1ccc(F)c(C(=O)Nc2cnc3[nH]nc(N(C)C)c3c2)c1F	0.65 µM
CCCS(=O)(=O)Nc1ccc(F)c(C(=O)Nc2cnc3[nH]nc(C)c3c2)c1F	0.83 µM
CCCS(=O)(=O)Nc1ccc(F)c(C(=O)Nc2cnc3[nH]ncc3c2)c1F	0.43 µM
CCCS(=O)(=O)Nc1ccc(F)c(C(=O)Nc2cnc3[nH]cnc3c2)c1F	> 3 µM
CCCS(=O)(=O)Nc1ccc(F)c(C(=O)Nc2cnc3[nH]nc(OC)c3c2)c1F	0.15 µM

====

- ASSAY EXPLANATION: AUC in CD-1 mouse at 100 mg/kg, po
- Type: ADME, organism-based
- Parameters: dose 100 mg/kg, route oral
- STATED CONDITIONS: plasma
// reported AUC per item

CHEMICAL SMILES	AUC
CCCS(=O)(=O)Nc1ccc(F)c(C(=O)Nc2cnc3[nH]nc(OC)c3c2)c1F	664 µg·h/mL
CCCS(=O)(=O)Nc1ccc(Cl)c(C(=O)Nc2cnc3[nH]nc(OC)c3c2)c1F	50.7 µg·h/mL

====

- MEASURED TARGET: Serine/threonine-protein kinase B-raf (Homo sapiens, UniProt P15056, V600E)
- ASSAY EXPLANATION: Inhibition of full length human B-Raf V600E mutant expressed in baculovirus infected insect cells assessed as [gamma-33P]incorporation into MEK after 60 mins by scintillation counting
pIC50: −log10 of the molar value.
Readings of pIC50 for the listed molecules
PARAMETER: pIC50

CHEMICAL SMILES	MEAS VALUE
CCCS(=O)(=O)Nc1ccc(F)c(C(=O)Nc2cnc3[nH]ncc3c2)c1F	7.77
CCCS(=O)(=O)Nc1ccc(F)c(C(=O)Nc2cnc3[nH]cc(Br)c3c2)c1F	8.47
CCCS(=O)(=O)Nc1ccc(F)c(C(=O)Nc2cnc3[nH]nc(Br)c3c2)c1F	8.40
CCCS(=O)(=O)Nc1ccc(Cl)c(C(=O)Nc2cnc3[nH]nc(OC)c3c2)c1F	8.77
CCCS(=O)(=O)Nc1ccc(F)c(C(=O)Nc2ccc(N)nc2)c1F	6.04
CCCS(=O)(=O)Nc1ccc(F)c(C(=O)Nc2cnc3[nH]nc(C)c3c2)c1F	7.92
CCCS(=O)(=O)Nc1ccc(F)c(C(=O)Nc2cnc3[nH]cnc3c2)c1F	7.21
CCCS(=O)(=O)Nc1ccc(F)c(C(=O)Nc2cnc3[nH]nc(N(C)C)c3c2)c1F	8.09
CCCS(=O)(=O)Nc1ccc(Cl)c(C(=O)Nc2cnc3[nH]ncc3c2)c1F	8.20
CCCS(=O)(=O)Nc1ccc(F)c(C(=O)Nc2cccnc2)c1F	5.41
CCCS(=O)(=O)Nc1ccc(F)c(C(=O)Nc2cnc3[nH]ccc3c2)c1F	7.42
